Every entry's value here was drawn from patent US5994342A.

# System: KB cells
# PROTOCOL SUMMARY: In vitro KB cell cytotoxicity assay (crystal violet)
# Format: cell-based
# CONDITION NOTES: Homo sapiens, 72 h, 3 days culture, read-out: KB Cell Cytotoxicity TD50
MEASUREMENT LABEL: IC50 (µg/mL)
Report as a plain number; the unit µg/mL is understood.

Record excerpt, results attached:
C[C@@H](NC(=O)OCc1ccccc1)C(=O)N[C@@H](CO)C(=O)OCC1CN2C(=O)CC2O1 (stereo partly drawn) :: 0.549
O=C(Cn1ccnn1)NC[C@@H]1CN2C(=O)C[C@H]2O1 (racemic) :: 0.282
O=C(N[C@@H](CO)C(=O)OCC1CN2C(=O)CC2O1)OCc1ccccc1 (stereo partly drawn) :: 0.352
O=C(NC[C@@H]1CN2C(=O)C[C@H]2O1)C1CCCCC1 (racemic) :: 0.073
Cl.NC[C@@H]1CN2C(=O)C[C@H]2O1 (racemic) :: 0.344

Indicate the recorded IC50 value for this compound: CC(=O)N[C@@H](CO)C(=O)OCC1CN2C(=O)CC2O1 (stereo partly drawn) [Example 75A]
1.98

Provide one value: measured IC50 of CCN(CC)C(=O)NC[C@@H]1CN2C(=O)C[C@H]2O1 (racemic)
0.246

Give reported IC50 value for O=C1C[C@H]2O[C@H](CNC(=O)C(F)(F)F)CN12 (racemic)
0.205

Find the measured IC50 of CC(=O)NCCCCCC(=O)NC[C@@H]1CN2C(=O)C[C@H]2O1 (racemic) and report it.
0.439
